Biological target: Recombinant PRC2 (EZH2-Y641F) (Homo sapiens (Human), UniProt Q15910, Y641F)
Sequence (Q15910 whole entry Y641F): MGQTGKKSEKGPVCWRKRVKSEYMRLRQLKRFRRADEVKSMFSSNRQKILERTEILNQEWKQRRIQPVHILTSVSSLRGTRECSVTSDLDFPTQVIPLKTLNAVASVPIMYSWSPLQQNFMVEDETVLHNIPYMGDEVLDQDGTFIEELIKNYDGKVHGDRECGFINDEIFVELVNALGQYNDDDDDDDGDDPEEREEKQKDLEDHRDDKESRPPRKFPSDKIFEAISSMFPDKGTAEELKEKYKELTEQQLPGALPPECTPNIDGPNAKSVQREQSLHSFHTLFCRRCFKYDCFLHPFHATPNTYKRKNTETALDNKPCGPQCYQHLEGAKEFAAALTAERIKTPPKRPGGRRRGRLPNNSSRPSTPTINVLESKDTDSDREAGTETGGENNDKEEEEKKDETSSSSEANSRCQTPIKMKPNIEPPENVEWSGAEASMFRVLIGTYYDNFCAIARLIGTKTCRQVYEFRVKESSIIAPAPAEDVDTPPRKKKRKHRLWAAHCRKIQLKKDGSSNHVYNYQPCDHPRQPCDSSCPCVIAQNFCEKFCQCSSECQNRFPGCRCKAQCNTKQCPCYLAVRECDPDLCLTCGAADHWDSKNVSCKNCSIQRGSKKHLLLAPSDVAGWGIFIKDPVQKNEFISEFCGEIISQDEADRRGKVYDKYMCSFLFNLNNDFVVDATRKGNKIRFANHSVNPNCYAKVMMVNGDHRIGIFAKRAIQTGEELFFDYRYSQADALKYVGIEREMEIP
Sequence (O75530 whole entry partner): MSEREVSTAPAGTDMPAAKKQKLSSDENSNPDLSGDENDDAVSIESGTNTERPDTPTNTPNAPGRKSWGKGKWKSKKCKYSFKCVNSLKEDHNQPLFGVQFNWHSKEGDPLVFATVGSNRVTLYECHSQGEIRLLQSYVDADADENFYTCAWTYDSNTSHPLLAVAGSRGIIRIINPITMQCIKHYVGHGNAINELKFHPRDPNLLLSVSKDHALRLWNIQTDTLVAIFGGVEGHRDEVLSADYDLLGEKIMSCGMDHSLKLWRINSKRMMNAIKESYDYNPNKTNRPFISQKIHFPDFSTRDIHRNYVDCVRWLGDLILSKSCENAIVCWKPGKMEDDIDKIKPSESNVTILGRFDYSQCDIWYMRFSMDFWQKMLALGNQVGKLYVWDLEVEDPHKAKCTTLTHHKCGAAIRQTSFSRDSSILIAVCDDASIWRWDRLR
Sequence (Q15022 whole entry partner): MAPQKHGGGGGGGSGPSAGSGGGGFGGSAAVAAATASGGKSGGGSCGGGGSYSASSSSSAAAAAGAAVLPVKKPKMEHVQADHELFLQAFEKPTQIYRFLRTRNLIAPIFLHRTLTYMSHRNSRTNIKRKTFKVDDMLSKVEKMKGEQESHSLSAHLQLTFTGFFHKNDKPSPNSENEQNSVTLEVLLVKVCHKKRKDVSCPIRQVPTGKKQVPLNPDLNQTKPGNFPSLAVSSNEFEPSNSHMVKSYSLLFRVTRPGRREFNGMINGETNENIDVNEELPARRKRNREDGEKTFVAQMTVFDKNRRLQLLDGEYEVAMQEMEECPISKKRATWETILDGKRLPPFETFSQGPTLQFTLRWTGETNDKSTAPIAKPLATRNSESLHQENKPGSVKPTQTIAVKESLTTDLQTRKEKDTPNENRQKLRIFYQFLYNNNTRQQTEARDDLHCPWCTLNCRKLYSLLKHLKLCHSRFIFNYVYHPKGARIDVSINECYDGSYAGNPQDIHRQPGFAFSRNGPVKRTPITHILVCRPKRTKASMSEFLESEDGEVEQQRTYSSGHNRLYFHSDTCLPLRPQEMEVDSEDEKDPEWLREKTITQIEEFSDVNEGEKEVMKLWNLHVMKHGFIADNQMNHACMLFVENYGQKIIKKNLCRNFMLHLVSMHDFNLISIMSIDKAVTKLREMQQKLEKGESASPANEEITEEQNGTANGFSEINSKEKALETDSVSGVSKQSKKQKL
Sequence (Q09028 whole entry partner): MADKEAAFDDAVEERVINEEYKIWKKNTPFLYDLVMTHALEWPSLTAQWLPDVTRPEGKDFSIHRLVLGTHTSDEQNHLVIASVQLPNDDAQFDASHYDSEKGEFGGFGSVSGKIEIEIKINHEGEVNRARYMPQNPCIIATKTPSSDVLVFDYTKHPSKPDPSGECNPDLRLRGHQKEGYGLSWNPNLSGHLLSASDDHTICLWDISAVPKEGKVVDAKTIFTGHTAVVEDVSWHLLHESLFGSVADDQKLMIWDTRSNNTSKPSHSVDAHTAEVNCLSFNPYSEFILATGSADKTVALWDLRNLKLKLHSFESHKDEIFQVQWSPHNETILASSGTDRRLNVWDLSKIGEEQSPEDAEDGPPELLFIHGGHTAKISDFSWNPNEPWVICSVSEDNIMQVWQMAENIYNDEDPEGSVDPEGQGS
Sequence (Q6ZN18 whole entry partner): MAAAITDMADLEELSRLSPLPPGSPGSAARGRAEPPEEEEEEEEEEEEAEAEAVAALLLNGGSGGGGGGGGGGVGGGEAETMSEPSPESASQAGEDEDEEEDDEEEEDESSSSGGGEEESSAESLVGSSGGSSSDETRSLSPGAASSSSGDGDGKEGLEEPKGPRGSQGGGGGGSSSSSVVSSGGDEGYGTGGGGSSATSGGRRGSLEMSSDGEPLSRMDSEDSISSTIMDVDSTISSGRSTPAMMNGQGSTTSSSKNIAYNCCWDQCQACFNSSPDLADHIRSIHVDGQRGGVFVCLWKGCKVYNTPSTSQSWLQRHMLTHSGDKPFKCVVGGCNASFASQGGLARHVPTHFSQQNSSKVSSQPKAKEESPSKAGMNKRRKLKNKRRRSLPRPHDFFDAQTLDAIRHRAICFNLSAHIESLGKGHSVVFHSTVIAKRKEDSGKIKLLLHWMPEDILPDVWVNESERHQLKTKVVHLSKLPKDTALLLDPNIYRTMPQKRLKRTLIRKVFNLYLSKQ
Assay: In vitro methyltransferase activity assay (LANCE Ultra)
Conditions: 2.5 μM SAM/250 nM H3(1-50)K27me1, 3 hours, room temperature

- compound: "CCN(c1c(C)c(C(=O)NCc2c(C)cc(C)[nH]c2=O)cc2c1cnn2C)C1CCC(N(C)CCOC)CC1 (stereo not drawn)"
  IC50 [nM]: 9
- compound: "CCc1c(C(=O)NCc2c(C)cc(C)[nH]c2=O)cc2c(cnn2C)c1N(CC)C1CCOCC1"
  IC50 [nM]: 8
- compound: "CCN(c1c(C)c(C(=O)NCc2c(OC)cc(C)[nH]c2=O)cc2cn[nH]c12)C1CCOCC1"
  IC50 [nM]: 154

* * *

Target: Recombinant PRC2 (EZH2-Y641F) (Homo sapiens (Human), UniProt Q15910, Y641F)
Test: In vitro methyltransferase activity assay (LANCE Ultra)
Format: biochemical
Conditions: 2.5 μM SAM/250 nM H3(1-50)K27me1, 3 hours, room temperature
Parameter log10 of IC50: see the listing below.
quantity-measured: log10 of IC50 (log10 of the value in µM)

- molecule: "CCN(c1c(C)c(C(=O)NCc2c(OC)cc(C)[nH]c2=O)cc2[nH]ncc12)C1CCOCC1"
  assay-value: -1.62
- molecule: "CCN(c1c(C)c(C(=O)NCc2c(C)cc(C)[nH]c2=O)cc2c1cnn2C)C1CCC(N(C)CCN(C)C)CC1 (stereo not shown)"
  assay-value: -1.59
- molecule: "CCN(c1c(C2CC2)c(C(=O)NCc2c(C)cc(C)[nH]c2=O)cc2c1cnn2C)C1CCOCC1"
  assay-value: -0.40
- molecule: "CCN(c1c(C)c(C(=O)NCc2c(C)cc(C)[nH]c2=O)cc2c1cnn2C)C1CCC(CN(C)C)CC1 (stereo not shown)"
  assay-value: -2.10
- molecule: "CCN(c1c(C)c(C(=O)NCc2c(OC)cc(C)[nH]c2=O)cc2nn(C)cc12)C1CCN(CC(F)(F)F)CC1"
  assay-value: -0.93
- molecule: "CCN(c1c(C)c(C(=O)NCc2c(C)cc(C)[nH]c2=O)cc2c1cnn2C)C1CCC(N(C)CC(F)F)CC1 (stereo not shown)"
  assay-value: -1.57
- molecule: "CCc1c(C(=O)NCc2c(C)cc(C)[nH]c2=O)cc2c(cnn2C)c1N(CC)[C@H]1CC[C@H](N2CC(OC)C2)CC1"
  assay-value: -1.35

* * *

Target: Recombinant PRC2 (EZH2-Y641F) (Homo sapiens (Human), UniProt Q15910, Y641F)
Experiment: In vitro methyltransferase activity assay (LANCE Ultra)
Format: biochemical
Conditions: SAR comment on Table 1; reduced relative to comparator compounds (P-7, P-13/14)
quantity-measured: inhibitory activity against the enzyme (in words)

- compound: "CCN(c1c(C)c(C(=O)NCc2c(C)cc(C)[nH]c2=O)cc2c1c(F)nn2C)C1CCOCC1"
  assay-value: "greatly reduced"
- compound: "CCN(c1c(C)c(C(=O)NCc2c(OC)cc(C)[nH]c2=O)cc2nn(C)cc12)C1CCOCC1"
  assay-value: "significantly reduced"
- compound: "CCN(c1c(C)c(C(=O)NCc2c(C)cc(C)[nH]c2=O)cc2c1c(C)nn2C)C1CCC(N(C)C)CC1 (stereo not shown)"
  assay-value: "greatly reduced"
- compound: "CCN(c1c(C)c(C(=O)NCc2c(OC)cc(C)[nH]c2=O)cc2cn[nH]c12)C1CCOCC1"
  assay-value: "significantly reduced"

* * *

Biological target: Recombinant PRC2 (EZH2-Y641F) (Homo sapiens (Human), UniProt Q15910, Y641F)
Assay: In vitro methyltransferase activity assay (LANCE Ultra)
Conditions: 2.5 μM SAM/250 nM H3(1-50)K27me1, 3 hours, room temperature
pIC50: −log10 of the molar value.
// reported pIC50 per item

- molecule: "CCc1c(C(=O)NCc2c(C)cc(C)[nH]c2=O)cc2c(cnn2C)c1N(CC)C1CCC(N2CCN(C)CC2)CC1 (stereo not drawn)"
  qualifier: "="
  pIC50: 7.34
- molecule: "CCN(c1c(C)c(C(=O)NCc2c(C)cc(C)[nH]c2=O)cc2c1c(F)nn2C)C1CCOCC1"
  qualifier: "="
  pIC50: 6.37
- molecule: "CCOC1CN(C2CCC(N(CC)c3c(CC)c(C(=O)NCc4c(C)cc(C)[nH]c4=O)cc4c3cnn4C)CC2)C1 (stereo not drawn)"
  qualifier: "="
  pIC50: 8.15
- molecule: "CCN(c1c(C)c(C(=O)NCc2c(C)cc(C)[nH]c2=O)cc2c1cnn2C)C1CCC(N2CCCCC2)CC1 (stereo not drawn)"
  qualifier: "="
  pIC50: 7.92
- molecule: "CCN(c1c(C)c(C(=O)NCc2c(C)cc(C)[nH]c2=O)cc2c1cnn2C)C1CCC(N(C)CC(F)(F)F)CC1 (stereo not drawn)"
  qualifier: "="
  pIC50: 7.22
- molecule: "CCc1c(C(=O)NCc2c(C)cc(C)[nH]c2=O)cc2c(cnn2C)c1N(CC)C1CCC(N2CC(OCC(F)(F)F)C2)CC1 (stereo not drawn)"
  qualifier: "="
  pIC50: 7.89
- molecule: "CCN(c1c(C)c(C(=O)NCc2c(OC)cc(C)[nH]c2=O)cc2c1cnn2C)C1CCN(CC(F)(F)F)CC1"
  qualifier: "="
  pIC50: 7.89
- molecule: "CCN(c1c(C)c(C(=O)NCc2c(C)cc(C)[nH]c2=O)cc2c1cnn2C)C1CCN(C2CCOCC2)CC1"
  qualifier: "="
  pIC50: 7.43
- molecule: "CCN(c1c(C)c(C(=O)NCc2c(C)cc(C)[nH]c2=O)cc2c1cnn2C)[C@H]1CC[C@H](N(C)C)CC1"
  qualifier: "="
  pIC50: 8.30
- molecule: "CCc1c(C(=O)NCc2c(C)cc(C)[nH]c2=O)cc2c(cnn2C)c1N(CC)C1CCC(N2CC(O)C2)CC1 (stereo not drawn)"
  qualifier: "="
  pIC50: 8.15
- molecule: "CCc1c(C(=O)NCc2c(OC)cc(C)[nH]c2=O)cc2c(cnn2C)c1N(CC)C1CCC(N(C)C)CC1 (stereo not drawn)"
  qualifier: "="
  pIC50: 8.30
- molecule: "CCN(c1c(C)c(C(=O)NCc2c(OC)cc(C)[nH]c2=O)cc2c1cnn2C)C1CCOCC1"
  qualifier: "="
  pIC50: 7.60
- molecule: "CCc1c(C(=O)NCc2c(C)cc(C)[nH]c2=O)cc2c(cnn2C)c1N(CC)C1CCC(N(C)C)CC1 (stereo not drawn)"
  qualifier: "="
  pIC50: 8.30
- molecule: "CCN(c1cc(C(=O)NCc2c(C)cc(C)[nH]c2=O)c(C)c2c1cnn2C)C1CCOCC1 [D1, reference compound]"
  qualifier: "<"
  pIC50: 5.00
- molecule: "CCc1c(C(=O)NCc2c(C)cc(C)[nH]c2=O)cc2c(cnn2C)c1N(CC)C1CCC(N(C)CCOC)CC1 (stereo not drawn)"
  qualifier: "="
  pIC50: 7.74

* * *

Biological target: Recombinant PRC2 (EZH2-Y641F) (Homo sapiens (Human), UniProt Q15910, Y641F)
Test: In vitro methyltransferase activity assay (LANCE Ultra)
Format: biochemical
Conditions: 2.5 μM SAM/250 nM H3(1-50)K27me1, 3 hours, room temperature
# log10(IC50) listing for each entry below
quantity-measured: log10(IC50) (log10 of the value in nM)

- molecule: "CCc1c(C(=O)NCc2c(OC)cc(C)[nH]c2=O)cc2c(cnn2C)c1N(C)[C@H]1CC[C@H](N(C)CCOC)CC1"
  log10(IC50): 1.15
- molecule: "CCN(c1c(C)c(C(=O)NCc2c(C)cc(C)[nH]c2=O)cc2c1cnn2C)[C@H]1CC[C@@H](N(C)C)CC1"
  log10(IC50): 1.36
- molecule: "CCN(c1c(C)c(C(=O)NCc2c(OC)cc(C)[nH]c2=O)cc2c1cnn2C)C1CCC(N(C)CCOC)CC1 (stereo not shown)"
  log10(IC50): 0.85
- molecule: "CCN(c1c(C)c(C(=O)NCc2c(C)cc(C)[nH]c2=O)cc2c1cnn2C)C1CCN(C2COC2)CC1"
  log10(IC50): 1.69
- molecule: "CCc1c(C(=O)NCc2c(C)cc(C)[nH]c2=O)cc2c(cnn2C)c1N(CC)C1CCC(N2CCNCC2)CC1 (stereo not shown)"
  log10(IC50): 1.53
- molecule: "CCN(c1c(C)c(C(=O)NCc2c(C)cc(C)[nH]c2=O)cc2c1cnn2C)C1CCC(C)(N)CC1 (stereo not shown)"
  log10(IC50): 1.72
- molecule: "CCN(c1c(C)c(C(=O)NCc2c(OC)cc(C)[nH]c2=O)cc2nn(C)cc12)C1CCOCC1"
  log10(IC50): 2.17
